Test system: MDA-MB-231
testDescription: Cytotoxicity in human MDA-MB-231 cells assessed as reduction in cell viability incubated for 48 hrs by MTT assay
Assay type: functional, cell-based
conditionSummary: MDA-MB-231, 48 h
Provide the reported IC50 of each item.

Query: Report IC50, nothing else, for this compound: Cc1ccsc1CN(C(=O)Nc1ccccc1)n1cnnc1
Reply: > 50 µM

Query: Report IC50, nothing else, for this compound: N#Cc1ccc(CN(C(=O)Nc2ccccc2)n2cnnc2)cc1
Reply: > 50 µM

Query: Report IC50, nothing else, for this compound: COc1cc(CN(C(=S)Nc2cc(C(F)(F)F)cc(C(F)(F)F)c2)n2cnnc2)cc(OC)c1OC
Reply: 24.9 µM

Query: Report IC50, nothing else, for this compound: Cc1ccc(NC(=O)N(Cc2ccccn2)n2cnnc2)cc1
Reply: 39.5 µM

Query: Report IC50, nothing else, for this compound: O=C(Nc1ccccc1)N(Cc1ccccn1)n1cnnc1
Reply: > 50 µM

Query: Report IC50, nothing else, for this compound: COc1ccc(CN(C(=S)Nc2ccc(C)cc2)n2cnnc2)cc1OC
Reply: > 50 µM
